Below: a set of entries, each annotated with reported relative viability EC50.
- Test system: HepG2
- Assay Details: relative viability EC50 (midpoint between 100% and the lowest measured viability); higher = less toxic
- Measurement Conditions: 72 h
Parameter Measured: relative viability EC50 (µM)

INSERT INTO assay_data (compound, result_unit, relation_qualifier, recorded_measurement) VALUES
  ('N[C@@H](CC(=O)Nc1ccc(Oc2cc(F)c(F)cc2Br)cc1)C(=O)O', 'µM', '>', 10),
  ('COc1cccc(CCc2ccccc2OCC(CN(C)C)OC(=O)CCC(=O)O)c1 (stereo unspecified) [sarpogrelate]', 'µM', '>', 10),
  ('C[C@H]1O[C@@H](O[C@H]2CC[C@@]3(C)[C@H](CC[C@@H]4[C@@H]3C[C@@H](O)[C@]3(C)[C@@H](C5=CC(=O)OC5)CC[C@]43O)C2)C[C@H](O)[C@@H]1O[C@H]1C[C@H](O)[C@H](O[C@H]2C[C@H](O)[C@H](O[C@@H]3O[C@H](CO)[C@@H](O)[C@H](O)[C@H]3O)[C@@H](C)O2)[C@@H](C)O1 [deslanoside]', 'µM', '=', 0.266),
  ('CCN(CC)CCN(Cc1ccc(-c2ccc(C(F)(F)F)cc2)cc1)C(=O)Cn1c(SCc2ccc(F)cc2)nc(=O)c2c1CCC2 [darapladib]', 'µM', '=', 3.21),
  ('COCCOc1ccc2c(c1)ncn2-c1ccc2cccc(N3CCC(N)CC3)c2n1', 'µM', '=', 2.57),
  ('CN(C)CCOc1ccc(/C(=C(/CCCl)c2ccccc2)c2ccccc2)cc1 [toremifene]', 'µM', '=', 3.4);

====

- System: Vero E6
- Assay Details: cell viability relative to DMSO; higher = less toxic
- Measurement Conditions: 72 h; 10 nM
Parameter Measured: cell viability (%)

INSERT INTO assay_data (molecule, parameter_measured, recorded_measurement) VALUES
  ('Clc1ccccc1CNC[C@H]1CC[C@H](CNCc2ccccc2Cl)CC1', 'cell viability', 104),
  ('NNC(=O)CSc1nc2scc(-c3ccccc3)c2c(=O)n1-c1ccccc1', 'cell viability', 97.1),
  ('CC(C)(C)NC[C@H](O)c1ccc(O)cc1Cl', 'cell viability', 102),
  ('COc1ccc(C2CNC(=O)C2)cc1OC1CCCC1 (stereo not given)', 'cell viability', 95.1),
  ('O=C(O)c1cc(=O)c2ccccc2[nH]1', 'cell viability', 98.7),
  ('O=C(CN1C2=NCCN2c2ccccc21)c1ccc(-c2ccccc2)cc1', 'cell viability', 99.5),
  ('CCc1cn([C@H]2C[C@H](O)[C@@H](CO)O2)c(=O)[nH]c1=O', 'cell viability', 101),
  ('CN[C@@H](C)CCC=C(C)C [isometheptene-mucate]', 'cell viability', 96.2),
  ('O=C1CCC[C@@H]2[C@H]3CCCN4CCC[C@@H](CN12)[C@@H]34', 'cell viability', 98.7),
  ('Oc1ccc(C2CNCCc3c2cc(O)c(O)c3Cl)cc1 (stereo not given)', 'cell viability', 99.4);

====

Below: a set of entries, each annotated with reported cell viability.
- System: Calu-3
- Assay Details: cell viability relative to DMSO; higher = less toxic
- Measurement Conditions: 72 h; 10000 nM
Parameter Measured: cell viability (%)

INSERT INTO measurements (compound, parameter_measured, recorded_measurement) VALUES
  ('COc1cc2c(NC3CCN(C4CCCCC4)CC3)nc(N3CCCN(C(C)C)CC3)nc2cc1OCCCN1CCCCC1', 'cell viability', 83.9),
  ('CCOC(=O)[C@@H](C)Oc1ccc(Oc2nc3ccc(Cl)cc3o2)cc1', 'cell viability', 112),
  ('COc1cc(C[C@@H]2NCCc3cc(O)c(O)cc32)cc(OC)c1OC', 'cell viability', 95.7),
  ('O=C(Nc1ccc([N+](=O)[O-])cc1O)Nc1ccccc1Br', 'cell viability', 59.3),
  ('CCCc1c(OCCCCc2nnn[nH]2)ccc(C(C)=O)c1O', 'cell viability', 104),
  ('Nc1nc(F)nc2c1ncn2[C@@H]1O[C@H](CO)[C@@H](O)[C@@H]1O', 'cell viability', 87.5),
  ('COc1cc(C(=S)N2CCOCC2)cc(OC)c1OC', 'cell viability', 105),
  ('CC(C)C(=O)SCCCCC[C@H](NC(=O)OC(C)(C)C)C(=O)NC12CC3CC(CC(C3)C1)C2 [TCS-HDAC6-20b]', 'cell viability', 85.3),
  ('CCOC(=O)c1c(C)[nH]c2ccc3c(c12)CN1CCc2cc(OC)ccc2C1O3 (centres undefined)', 'cell viability', 53.6);
